assay: log P by HPLC on reversed-phase column (EEC Directive 79/831 Annex V.A8); assay type: physicochemical
Would you please tag the item 1 (yes) when its logP is 4 or above, and 0 (no) when it is below?

>>> print(df.to_string())
                                    molecule  group_label
 0  CCN(CC=Cc1ccccc1)C(=O)c1c(C(F)F)nn(C)c1Cl       0 (no)
 1  Cc1ccc2sc(CCCN(C(=O)c3c(C(F)F)nn(C)c3F)C3CC3)cc2c1      1 (yes)
 2  Cn1nc(C(F)F)c(C(=O)NC(C)(C)CCc2ccc(Cl)c(Cl)c2)c1Cl      1 (yes)
 3  Cn1nc(C(F)F)c(C(=O)N(CCOc2c(Cl)cc(Cl)cc2Cl)C2COC2)c1Cl       0 (no)
 4  Cn1nc(C(F)F)c(C(=O)N(CC2CCCCC2c2ccccc2)C2CC2)c1F (stereo not shown)      1 (yes)
 5  CC(COc1ccc(Cl)cc1Cl)NC(=O)c1c(C(F)F)nn(C)c1F (stereo not shown)       0 (no)
 6  Cn1nc(C(F)F)c(C(=O)NC(C)(C)CCc2cc(Cl)ccc2Cl)c1F      1 (yes)
 7  CC(CCc1ccc(Cl)c(Cl)c1)NC(=O)c1c(C(F)F)nn(C)c1F (racemic)       0 (no)
 8  Cn1nc(C(F)F)c(C(=O)NC2CCCCC2C2CCCCC2)c1Cl (stereo not shown)      1 (yes)
 9     CN(CCCc1ccco1)C(=O)c1c(C(F)F)nn(C)c1F       0 (no)
10  Cn1nc(C(F)F)c(C(=O)NCCCc2ccc(Cl)cc2Cl)c1F       0 (no)
11  Cc1cccc(OC2CCCC2NC(=O)c2c(C(F)F)nn(C)c2Cl)c1 (stereo not shown)       0 (no)
12  Cn1nc(C(F)F)c(C(=O)N(C[Si](C)(C)Cc2ccccc2Cl)C2CC2)c1F      1 (yes)
13  Cn1nc(C(F)F)c(C(=O)N(CC#Cc2cc3ccccc3o2)C2CC2)c1F       0 (no)
14  Cn1nc(C(F)F)c(C(=O)NC2(COc3ccc(Cl)cc3)CC2)c1Cl       0 (no)
15  CC(CC(C)(C)C)C1CCCCC1NC(=O)c1c(C(F)F)nn(C)c1Cl (stereo not shown)      1 (yes)
16  CON(CCC(C)c1ccc(C)o1)C(=O)c1c(C(F)F)nn(C)c1Cl (stereo not shown)       0 (no)
17  Cn1nc(C(F)F)c(C(=O)NCCOc2cc(Cl)cc(Cl)c2)c1F       0 (no)
18  Cn1nc(C(F)F)c(C(=O)NCCOc2cccc(Oc3ccccc3)c2)c1F       0 (no)
19  CN(C(=O)c1c(C(F)F)nn(C)c1Cl)C1CCCCC1Cc1ccccc1 (stereo not shown)       0 (no)
20  Cn1nc(C(F)F)c(C(=O)NCCOc2c(Cl)cc(Cl)cc2Cl)c1F       0 (no)
21  Cn1nc(C(F)F)c(C(=O)NC(C)(C)CCc2cc(Cl)cc(Cl)c2)c1Cl      1 (yes)
22  CN(C(=O)c1c(C(F)F)nn(C)c1F)C(COc1ccccc1Cl)C1CC1 (racemic)       0 (no)
23  CC(C)CC(C)C1CCCCC1NC(=O)c1c(C(F)F)nn(C)c1F (stereo not shown) [Example 339]      1 (yes)
24  CC(CCc1ccc(Cl)c(Cl)c1)N(C(=O)c1c(C(F)F)nn(C)c1Cl)C1CC1 (racemic)      1 (yes)
25  Cn1nc(C(F)F)c(C(=S)N(C[Si](C)(C)Cc2ccccc2Cl)C2CC2)c1F      1 (yes)
26  CCC(CCc1sccc1C)NC(=O)c1c(C(F)F)nn(C)c1F (stereo not shown)       0 (no)
